Numbers sourced from patent US8158792B2.

TARGET_UNDER_TEST: human lung tryptase
TEST_NAME: β-Tryptase In-Vitro Enzyme Assay
CONDITIONS_USED: human lung tryptase 1 nM, substrate H-D-HHT-Ala-Arg-pNa 500 μM, pH 7.4, room temperature
pIC50: −log10 of the molar value.
MEASURED_PROPERTY: pIC50

Some solved entries appear below for comparison.
Input: What reported pIC50 corresponds to COc1ccc(CN2C(=O)c3ccc(CN)cc3C23CCN(C(=O)c2ccc(C#Cc4ccccc4)o2)CC3)c(OC)c1 on human lung tryptase?
Output: 7.13

Input: What reported pIC50 corresponds to NCc1ccc2c(c1)C1(CCN(C(=O)c3ccc(-c4ccccc4)s3)CC1)CO2 on human lung tryptase?
Output: 6.62

A: NCc1ccc2c(c1)C1(CCN(C(=O)c3ccc(C#Cc4ccccc4)o3)CC1)CN2S(=O)(=O)c1cccc(C(=O)O)c1
B: CSc1cc(-c2ccc(Cl)cc2)c(C(=O)N2CCC3(CC2)COc2ccc(CN)cc23)s1
Input: Pick one: A or B . Which has the bigger pIC50 number? Let me know the label of the one you choose.
Output: B
(B: 7.77, A: 7.39)

###

TARGET_UNDER_TEST: human lung tryptase
TEST_NAME: β-Tryptase In-Vitro Enzyme Assay
CONDITIONS_USED: human lung tryptase 1 nM, substrate H-D-HHT-Ala-Arg-pNa 500 μM, pH 7.4, room temperature
pIC50: −log10 of the molar value.
MEASURED_PROPERTY: pIC50

Some solved entries appear below for comparison.
Input: # pIC50 lookup, item CC(C)(C)c1cccc(C(=O)N2CCC3(CC2)COc2ccc(CN)cc23)c1 [Cpd 274]
Output: 5.19

Input: # pIC50 lookup, item NCc1ccc2c(c1)C1(CCN(C(=O)c3ccc(Oc4cc(C(F)(F)F)cc(C(F)(F)F)c4)cc3)CC1)CO2 [Cpd 279]
Output: 5.10

Input: # pIC50 lookup, item CSc1sc(C(=O)N2CCC3(CC2)COc2ccc(CN)cc23)c(-c2ccc(Cl)cc2)c1C#N [Cpd 202]
Output: 7.29

1: NCc1ccc2c(c1)C1(CCN(C(=O)c3ccc(Cl)c(Cl)c3)CC1)CS2(=O)=O [Cpd 352]
2: CSc1sc(C(=O)N2CCC3(CC2)CN(S(=O)(=O)O)c2ccc(CN)cc23)c2ccccc12 [Cpd 350]
3: NCc1ccc2c(c1)C1(CCN(C(=O)CCc3ccccc3)CC1)CO2 [Cpd 79]
4: C[N+](C)(C)Cc1ccc2c(c1)C1(CCN(C(=O)c3ccc(C#Cc4ccccc4)o3)CC1)CO2 [Cpd 297]
5: CNC(=N)c1ccc2c(c1)C1(CCN(C(=O)c3ccc(C#Cc4ccccc4)o3)CC1)CO2 [Cpd 310]
Input: Ascending sort, pIC50. Give me the labels in the order the question wants.
Output: 4, 1, 3, 5, 2
(4: 5.02, 1: 5.28, 3: 5.85, 5: 6.11, 2: 7.60)

###

TARGET_UNDER_TEST: human lung tryptase
TEST_NAME: β-Tryptase In-Vitro Enzyme Assay
CONDITIONS_USED: human lung tryptase 1 nM, substrate H-D-HHT-Ala-Arg-pNa 500 μM, pH 7.4, room temperature
Description: The β-tryptase assay was conducted with human lung tryptase (Cortex Biochem #CP3033) in an aqueous buffer (10 mM Tris, 10 mM Hepes, 150 mM NaCl, 0.1% PEG 8000, pH 7.4) using the chromogenic substrate H-D-HHT-Ala-Arg-pNa. […] Percent inhibition was calculated by comparing the initial reaction velocity of samples without inhibitor to those with inhibitor. The initial reaction velocities were analyzed using Microsoft Excel.
pIC50: −log10 of the molar value.
MEASURED_PROPERTY: pIC50

Some solved entries appear below for comparison.
Input: # pIC50 lookup, item N=C(NN)c1ccc2c(c1)C1(CCN(C(=O)c3ccc(C#Cc4ccccc4)o3)CC1)CO2
Output: 7.22

Input: # pIC50 lookup, item CSc1sc(C(=O)N2CCC3(CC2)COc2ccc(CN)cc23)c2c1C=CCC2
Output: 8.54

Input: # pIC50 lookup, item Cc1ccc2c(Cl)c(C(=O)N3CCC4(CC3)COc3ccc(CN)cc34)sc2c1
Output: 5.82

Input: # pIC50 lookup, item NCc1ccc2c(c1)C1(CCN(C(=O)c3cncc(-c4cccs4)c3)CC1)CO2
Output: 7.25

Input: # pIC50 lookup, item Cc1nc(C)c(C(=O)N2CCC3(CC2)COc2ccc(CN)cc23)s1
Output: 6.96

Input: # pIC50 lookup, item NCc1ccc2c(c1)C1(CCN(C(=O)Cc3ccc(Cl)cc3)CC1)CO2
Output: 6.32

Input: # pIC50 lookup, item COc1ccccc1/C=C/C(=O)N1CCC2(CC1)COc1ccc(CN)cc12
Output: 6.82

Input: # pIC50 lookup, item NCc1ccc2c(c1)C1(CCN(C(=O)c3ccc(Cl)c(Cl)c3)CC1)C(=O)N2
Output: 6.32

I: NCc1ccc2c(c1)C1(CCN(C(=O)/C=C/c3ccccc3F)CC1)CO2
II: NCc1ccc2c(c1)C1(CCN(C(=O)c3ccc(Cc4ccccc4)cc3)CC1)CO2
III: Cc1cc(C(=O)N2CCC3(CC2)COc2ccc(CN)cc23)ccc1I
Input: Ascending sort, pIC50. Give me the labels in the order the question wants.
Output: II, III, I
(II: 6.33, III: 6.72, I: 7.00)

I: NCc1ccc2c(c1)C1(CCN(C(=O)c3cc4ccsc4s3)CC1)CO2
II: NCCc1ccc2c(c1)C1(CCN(C(=O)c3ccc(C#Cc4ccccc4)o3)CC1)CO2
III: COc1ccc(CC(=O)N2CCC3(CC2)COc2ccc(CN)cc23)cc1
IV: NCc1ccc2c(c1)C1(CCN(C(=O)c3ccc(Oc4ccccc4)cc3)CC1)CO2
V: NCc1ccc2c(c1)C1(CCN(C(=O)c3ccc(S(N)(=O)=O)cc3)CC1)CO2
Input: Please give the order of these compounds when sorted by pIC50, largest value leading. Give me the labels in the order the question wants.
Output: I, III, IV, II, V
(I: 7.09, III: 6.62, IV: 6.10, II: 5.89, V: 5.33)

P: NCc1ccc2c(c1)C1(CCN(C(=O)c3cc(-c4ccccc4)c(C(F)(F)F)s3)CC1)CO2
Q: NCc1ccc2c(c1)C1(CCN(C(=O)c3ccc4c(c3)C(=O)c3ccccc3-4)CC1)CO2
R: N#Cc1cccc(C(=O)N2CCC3(CC2)COc2ccc(CN)cc23)c1
Input: Ascending sort, pIC50. Give me the labels in the order the question wants.
Output: Q, R, P
(Q: 5.47, R: 5.72, P: 7.38)

a: NCc1ccc2c(c1)C1(CCN(C(=O)/C=C/c3ccoc3)CC1)CO2
b: C[C@H]1CC[C@H](C(=O)N2CCC3(CC2)COc2ccc(CN)cc23)CC1
c: NCc1ccc2c(c1)C1(CCN(C(=O)c3ccc(OC(F)(F)F)cc3)CC1)CO2
d: C=CCc1ccc(OCc2ccc(C(=O)N3CCC4(CC3)COc3ccc(CN)cc34)o2)c(OC)c1
Input: Please give the order of these compounds when sorted by pIC50, largest value leading. Give me the labels in the order the question wants.
Output: d, b, a, c
